Reference for the values: patent US20240327497A1

target: canine FcRn (FcRn large subunit with canine beta-2-microglobulin) (canine); assay: SPR pH 6.0, IgG coupled to CM5, FcRn 50-800 nM
Each item that follows carries a reported kon.
Numeric answer only, unit M⁻¹ s⁻¹ assumed.

Worked cases, kon given:
Binder	kon, M⁻¹ s⁻¹
anti-NGF canine IgGB antibody, Fc variant A426Y + Y436H (antibody, part only; not given: anti-NGF variable domains and light chain, not shown: another chain or arm of the molecule; small tags and cut ends) Fc: APEMLGGPSVFIFPPKPKDTLLIARTPEVTCVVVDLDPEDPEVQISWFVDGKQMQTAKTQPREEQFNGTYRVVSVLPIGHQDWLKGKQFTCKVNNKALPSPIERTISKARGQAHQPSVYVLPPSREELSKNTVSLTCLIKDFFPPDIDVEWQSNGQQEPESKYRTTPPQLDEDGSYFLYSKLSVDKSRWQRGDTFICYVMHEALHNHHTQESLSHSPGK	153000
anti-NGF canine IgGB antibody, Fc variant A426H + Y436H (antibody, part only; not given: anti-NGF variable domains and light chain, not shown: another chain or arm of the molecule; small tags and cut ends) Fc: APEMLGGPSVFIFPPKPKDTLLIARTPEVTCVVVDLDPEDPEVQISWFVDGKQMQTAKTQPREEQFNGTYRVVSVLPIGHQDWLKGKQFTCKVNNKALPSPIERTISKARGQAHQPSVYVLPPSREELSKNTVSLTCLIKDFFPPDIDVEWQSNGQQEPESKYRTTPPQLDEDGSYFLYSKLSVDKSRWQRGDTFICHVMHEALHNHHTQESLSHSPGK	88700

We next turn to a different binder, shown below.
Output kon of anti-NGF canine IgGB antibody, Fc variant A426Y + T286L (antibody, part only; not given: Anti-NGF variable domains, not shown: another chain or arm of the molecule; small tags and cut ends) Fc: APEMLGGPSVFIFPPKPKDTLLIARTPEVTCVVVDLDPEDPEVQISWFVDGKQMQLAKTQPREEQFNGTYRVVSVLPIGHQDWLKGKQFTCKVNNKALPSPIERTISKARGQAHQPSVYVLPPSREELSKNTVSLTCLIKDFFPPDIDVEWQSNGQQEPESKYRTTPPQLDEDGSYFLYSKLSVDKSRWQRGDTFICYVMHEALHNHYTQESLSHSPGK 171000
